Test system: NCI-H520
PROTOCOL_DETAILS: relative viability (nuclei count vs DMSO), 5 days (fraction); higher = more cells survive
REPORTED_CONDITIONS: first compound 8 µM
READOUT_LABEL: relative viability
Lab note: jot down the number only; don't add units.

{"COMPOUND": "CCCCCCCCCCCC1=C(O)C(=O)C=C(O)C1=O [Embelin] + CS(=O)(=O)CCNCc1ccc(-c2ccc3ncnc(Nc4ccc(OCc5cccc(F)c5)c(Cl)c4)c3c2)o1 [Lapatinib] (partner 2 µM)", "READOUT_LABEL": "relative viability", "ENDPOINT_RESULT": 0.862}

What measured relative viability goes with CCCCCCCCCCCC1=C(O)C(=O)C=C(O)C1=O [Embelin] + CC1(C)CCC(c2ccc(Cl)cc2)=C(CN2CCN(c3ccc(C(=O)NS(=O)(=O)c4ccc(N[C@H](CCN5CCOCC5)CSc5ccccc5)c(S(=O)(=O)C(F)(F)F)c4)cc3)CC2)C1 [Navitoclax] (partner 0.5 µM) ?
1.04

====

As shown below, each of these molecules has a reported relative viability value.
Test system: NCI-H1975
PROTOCOL_DETAILS: relative viability (nuclei count vs DMSO), 5 days (fraction); higher = more cells survive
REPORTED_CONDITIONS: first compound 0.04 µM

Consider the reported relative viability for these molecules:
{"MOLECULE": "Clc1ccc(Nc2nnc(Cc3ccncc3)c3ccccc23)cc1 [Vatalanib] + O=C(CCCCCCC(=O)Nc1ccccc1)NO [Vorinostat] (partner 1 µM)", "READOUT_LABEL": "relative viability", "ENDPOINT_RESULT": 0.674}
{"MOLECULE": "C[C@@H]1CN(CC(=O)Nc2ccc3c(c2)Cc2cccc(-c4cc(=O)cc(N5CCOCC5)o4)c2S3)C[C@H](C)O1 + Cc1cc(Nc2cc(N3CCN(C)CC3)nc(Sc3ccc(NC(=O)C4CC4)cc3)n2)n[nH]1 [Tozasertib] (partner 0.1 µM)", "READOUT_LABEL": "relative viability", "ENDPOINT_RESULT": 0.781}

What measured relative viability goes with COc1cc(N2CCC(C(N)=O)CC2)ccc1Nc1nc(N)c(Cl)c(Nc2ccccc2S(=O)(=O)C(C)C)n1 [HG-5-88-01] + C[C@@H](Oc1cc(-c2cnn(C3CCNCC3)c2)cnc1N)c1c(Cl)ccc(F)c1Cl [Crizotinib] (partner 1 µM) ?
1.03

What measured relative viability goes with Clc1ccc(Nc2nnc(Cc3ccncc3)c3ccccc23)cc1 [Vatalanib] + CC1(C)CCC(c2ccc(Cl)cc2)=C(CN2CCN(c3ccc(C(=O)NS(=O)(=O)c4ccc(N[C@H](CCN5CCOCC5)CSc5ccccc5)c(S(=O)(=O)C(F)(F)F)c4)cc3)CC2)C1 [Navitoclax] (partner 0.5 µM) ?
1.09

====

Test system: COR-L23
PROTOCOL_DETAILS: relative viability (nuclei count vs DMSO), 5 days (fraction); higher = more cells survive
REPORTED_CONDITIONS: first compound 0.01 µM
Checkbox rule: relative viability lower than 0.8 = Condition met; relative viability not lower than 0.8 = Condition not met.

These solved cases illustrate the format of a correct answer.
{"COMPOUND": "CC(C)Oc1cc(Nc2nc(N[C@@H](C)c3ccc(F)cn3)ncc2Cl)n[nH]1 [AZ23] + CC(C)C[C@H](NC(=O)[C@H](Cc1ccccc1)NC(=O)c1cnccn1)B(O)O [Bortezomib] (partner 0.002 µM)", "LABEL_CLASS": "Condition not met"}
{"COMPOUND": "CC(C)Oc1cc(Nc2nc(N[C@@H](C)c3ccc(F)cn3)ncc2Cl)n[nH]1 [AZ23] + C[C@]1(O)C[C@@H](c2nc(-c3ccc4ccc(-c5ccccc5)nc4c3)c3c(N)nccn32)C1 [Linsitinib] (partner 1 µM)", "LABEL_CLASS": "Condition not met"}
{"COMPOUND": "CC(C)Oc1cc(Nc2nc(N[C@@H](C)c3ccc(F)cn3)ncc2Cl)n[nH]1 [AZ23] + O=C(CCCCCCC(=O)Nc1ccccc1)NO [Vorinostat] (partner 1 µM)", "LABEL_CLASS": "Condition met"}
{"COMPOUND": "CC(C)Oc1cc(Nc2nc(N[C@@H](C)c3ccc(F)cn3)ncc2Cl)n[nH]1 [AZ23] + CCNC(=O)c1noc(-c2cc(C(C)C)c(O)cc2O)c1-c1ccc(CN2CCOCC2)cc1 [Luminespib] (partner 0.01 µM)", "LABEL_CLASS": "Condition met"}
{"COMPOUND": "CC(C)Oc1cc(Nc2nc(N[C@@H](C)c3ccc(F)cn3)ncc2Cl)n[nH]1 [AZ23] + CC(=O)Nc1cccc(-n2c(=O)n(C3CC3)c(=O)c3c(Nc4ccc(I)cc4F)n(C)c(=O)c(C)c32)c1 [Trametinib] (partner 0.02 µM)", "LABEL_CLASS": "Condition met"}

Consider the record given below.
Given the entry CC(C)Oc1cc(Nc2nc(N[C@@H](C)c3ccc(F)cn3)ncc2Cl)n[nH]1 [AZ23] + Nc1ncn([C@H]2C[C@H](O)[C@@H](CO)O2)c(=O)n1 [Decitabine] (partner 2 µM) , would its reported relative viability be below 0.8?
Condition met

====

Test system: NCI-H727
PROTOCOL_DETAILS: relative viability (nuclei count vs DMSO), 5 days (fraction); higher = more cells survive
REPORTED_CONDITIONS: first compound 0.4 µM
READOUT_LABEL: relative viability
Lab note: jot down the number only; don't add units.

{"COMPOUND": "Clc1ccc(Nc2nnc(Cc3ccncc3)c3ccccc23)cc1 [Vatalanib] + CC(=O)Nc1cccc(-n2c(=O)n(C3CC3)c(=O)c3c(Nc4ccc(I)cc4F)n(C)c(=O)c(C)c32)c1 [Trametinib] (partner 0.02 µM)", "relative viability": 0.377}
{"COMPOUND": "COc1cc(N2CCC(C(N)=O)CC2)ccc1Nc1nc(N)c(Cl)c(Nc2ccccc2S(=O)(=O)C(C)C)n1 [HG-5-88-01] + Cc1nc(NC(=O)N2CCC[C@H]2C(N)=O)sc1-c1ccnc(C(C)(C)C(F)(F)F)c1 [Alpelisib] (partner 2 µM)", "relative viability": 0.519}
{"COMPOUND": "COc1cc(N2CCC(C(N)=O)CC2)ccc1Nc1nc(N)c(Cl)c(Nc2ccccc2S(=O)(=O)C(C)C)n1 [HG-5-88-01] + CS(=O)(=O)CCNCc1ccc(-c2ccc3ncnc(Nc4ccc(OCc5cccc(F)c5)c(Cl)c4)c3c2)o1 [Lapatinib] (partner 2 µM)", "relative viability": 0.669}
{"COMPOUND": "COc1cc(N2CCC(C(N)=O)CC2)ccc1Nc1nc(N)c(Cl)c(Nc2ccccc2S(=O)(=O)C(C)C)n1 [HG-5-88-01] + O=C(CCCCCCC(=O)Nc1ccccc1)NO [Vorinostat] (partner 1 µM)", "relative viability": 1.19}
{"COMPOUND": "COc1cc(N2CCC(C(N)=O)CC2)ccc1Nc1nc(N)c(Cl)c(Nc2ccccc2S(=O)(=O)C(C)C)n1 [HG-5-88-01] + Cc1cc(Nc2cc(N3CCN(C)CC3)nc(Sc3ccc(NC(=O)C4CC4)cc3)n2)n[nH]1 [Tozasertib] (partner 0.1 µM)", "relative viability": 0.582}

Form field - read-out: relative viability; system: NCI-H727; submitted item: C[C@@H]1CN(CC(=O)Nc2ccc3c(c2)Cc2cccc(-c4cc(=O)cc(N5CCOCC5)o4)c2S3)C[C@H](C)O1 + CC(=O)Nc1cccc(-n2c(=O)n(C3CC3)c(=O)c3c(Nc4ccc(I)cc4F)n(C)c(=O)c(C)c32)c1 [Trametinib] (partner 0.02 µM)
0.379

Form field - read-out: relative viability; system: NCI-H727; submitted item: COc1cc(N2CCC(C(N)=O)CC2)ccc1Nc1nc(N)c(Cl)c(Nc2ccccc2S(=O)(=O)C(C)C)n1 [HG-5-88-01] + N=C(N)NC(=N)NCCc1ccccc1 [Phenformin] (partner 250 µM)
0.394

Form field - read-out: relative viability; system: NCI-H727; submitted item: C[C@@H]1CN(CC(=O)Nc2ccc3c(c2)Cc2cccc(-c4cc(=O)cc(N5CCOCC5)o4)c2S3)C[C@H](C)O1 + CC1(C)CCC(c2ccc(Cl)cc2)=C(CN2CCN(c3ccc(C(=O)NS(=O)(=O)c4ccc(N[C@H](CCN5CCOCC5)CSc5ccccc5)c(S(=O)(=O)C(F)(F)F)c4)cc3)CC2)C1 [Navitoclax] (partner 0.5 µM)
0.412

====

System: A-427
PROTOCOL_DETAILS: relative viability (nuclei count vs DMSO), 5 days (fraction); higher = more cells survive
REPORTED_CONDITIONS: first compound 4 µM
Checkbox rule: relative viability lower than 0.9 = t; relative viability not lower than 0.9 = f.

Given the entry COc1cc(N2CCC(C(N)=O)CC2)ccc1Nc1nc(N)c(Cl)c(Nc2ccccc2S(=O)(=O)C(C)C)n1 [HG-5-88-01] + Cc1nc(NC(=O)N2CCC[C@H]2C(N)=O)sc1-c1ccnc(C(C)(C)C(F)(F)F)c1 [Alpelisib] (partner 2 µM) , would its reported relative viability be below 0.9?
f

Given the entry C[C@@H]1CN(CC(=O)Nc2ccc3c(c2)Cc2cccc(-c4cc(=O)cc(N5CCOCC5)o4)c2S3)C[C@H](C)O1 + CS(=O)(=O)CCNCc1ccc(-c2ccc3ncnc(Nc4ccc(OCc5cccc(F)c5)c(Cl)c4)c3c2)o1 [Lapatinib] (partner 2 µM) , would its reported relative viability be below 0.9?
f

Given the entry Clc1ccc(Nc2nnc(Cc3ccncc3)c3ccccc23)cc1 [Vatalanib] + CC1(C)CCC(c2ccc(Cl)cc2)=C(CN2CCN(c3ccc(C(=O)NS(=O)(=O)c4ccc(N[C@H](CCN5CCOCC5)CSc5ccccc5)c(S(=O)(=O)C(F)(F)F)c4)cc3)CC2)C1 [Navitoclax] (partner 0.5 µM) , would its reported relative viability be below 0.9?
f

Given the entry Clc1ccc(Nc2nnc(Cc3ccncc3)c3ccccc23)cc1 [Vatalanib] + CC(=O)Nc1cccc(-n2c(=O)n(C3CC3)c(=O)c3c(Nc4ccc(I)cc4F)n(C)c(=O)c(C)c32)c1 [Trametinib] (partner 0.02 µM) , would its reported relative viability be below 0.9?
t

Given the entry COc1cc(N2CCC(C(N)=O)CC2)ccc1Nc1nc(N)c(Cl)c(Nc2ccccc2S(=O)(=O)C(C)C)n1 [HG-5-88-01] + COc1cccc2cc(-c3nc([C@H]4CC[C@H](C(=O)O)CC4)n4ncnc(N)c34)[nH]c12 [OSI-027] (partner 0.5 µM) , would its reported relative viability be below 0.9?
t

Given the entry Clc1ccc(Nc2nnc(Cc3ccncc3)c3ccccc23)cc1 [Vatalanib] + COc1cccc2cc(-c3nc([C@H]4CC[C@H](C(=O)O)CC4)n4ncnc(N)c34)[nH]c12 [OSI-027] (partner 0.5 µM) , would its reported relative viability be below 0.9?
t

Given the entry C[C@@H]1CN(CC(=O)Nc2ccc3c(c2)Cc2cccc(-c4cc(=O)cc(N5CCOCC5)o4)c2S3)C[C@H](C)O1 + Cc1nc(Nc2ncc(C(=O)Nc3c(C)cccc3Cl)s2)cc(N2CCN(CCO)CC2)n1 [Dasatinib] (partner 0.075 µM) , would its reported relative viability be below 0.9?
t

Given the entry C[C@@H]1CN(CC(=O)Nc2ccc3c(c2)Cc2cccc(-c4cc(=O)cc(N5CCOCC5)o4)c2S3)C[C@H](C)O1 + COc1cc2c(Oc3ccc(NC(=O)C4(C(=O)Nc5ccc(F)cc5)CC4)cc3F)ccnc2cc1OCCCN1CCOCC1 [Foretinib] (partner 0.25 µM) , would its reported relative viability be below 0.9?
f

Given the entry C[C@@H]1CN(CC(=O)Nc2ccc3c(c2)Cc2cccc(-c4cc(=O)cc(N5CCOCC5)o4)c2S3)C[C@H](C)O1 + C[C@]1(O)C[C@@H](c2nc(-c3ccc4ccc(-c5ccccc5)nc4c3)c3c(N)nccn32)C1 [Linsitinib] (partner 1 µM) , would its reported relative viability be below 0.9?
f

Given the entry Clc1ccc(Nc2nnc(Cc3ccncc3)c3ccccc23)cc1 [Vatalanib] + CCNC(=O)c1noc(-c2cc(C(C)C)c(O)cc2O)c1-c1ccc(CN2CCOCC2)cc1 [Luminespib] (partner 0.01 µM) , would its reported relative viability be below 0.9?
f

Taken from the supplement of paper PMC10307832.
